- TEST SYSTEM: T1, canine IL-31 protein (Canine_IL31) (canine)
- T1 chain: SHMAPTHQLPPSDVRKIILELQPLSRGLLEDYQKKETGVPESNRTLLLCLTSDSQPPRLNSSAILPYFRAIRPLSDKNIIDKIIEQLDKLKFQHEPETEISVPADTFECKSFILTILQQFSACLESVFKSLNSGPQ
- PROTOCOL DETAILS: SPR (Biacore), IL-31 on chip, 1:1 fit
ASSAY READOUT: kon (M⁻¹ s⁻¹)
Entry rule: numbers only, all in M⁻¹ s⁻¹.

The binder listed as Feline 15H05 3.2 (antibody, V domains shown, Feline heavy and kappa constant regions) VH: QVLLVQSGAEVRKPGASVKIFCKASGYSFTSYTIHWLRQAPEQGLEWMGNINPTSGYTENNQRFKDRLTLTADTSTNTAYMELSSLRSADTAMYYCARWGFKYDGEWSFDVWGAGTTVTVSS VL: EITMTQSPGSLAGSPGQQVTMNCRASQGISIWLSWYQQKPGQHPKLLIYKASNLHIGVPDRFSGSGSGTDFTLTISNLQAEDVASYYCLQSQTYPLTFGGGTKLEIK shows kon equal to 29700

According to the records, this binder Feline 15H05 2.1 (antibody, V domains shown, Feline heavy and kappa constant regions) VH: QVLLVQSGAEVRTPGASVKIFCKASGYGFTSYTIHWVRQSPAQGLEWMGNINPTSGYTENNQRFKDRLTLTADTSTNTAYMELSSLRSADTAMYYCARWGFKYDGEWSFDVWGAGTTVTVSS VL: EIQMTQSPSSLSASPGDRVTITCRASQGISIWLSWYQQKPGKVPKLLIYKASNLHIGVPSRFSGSGSGTDFTLTISSLEPEDAATYYCLQSQTYPLTFGGGTKLEIK displays kon of 525000

So, Feline 15H05 1.1 FW2_3 (antibody, V domains shown) VH: QVLLVQSGAEVRTPGASVKIFCKASGYSFTSYTIHWLRQAPAQGLEWMGNINPTSGYTENNQRFKDRLTLTADTSTNTAYMELSSLRSADTAMYYCARWGFKYDGEWSFDVWGAGTTVTVSS VL: EIQMTQSPSSLSASPGDRVTITCRASQGISIWLSWYQQKPGNIPKVLINKASNLHIGVPPRFSGSGSGTHFTLTITSLQPEDIATYYCLQSQTYPLTFGGGTKLEIK ? Its kon was 9050
